Read-out: solute carrier (SLC10A1), SLC10A1 (gene 6554)
PROTOCOL_NOTES: LTEA_HepaRG_SLC10A1: Life Technologies and Expression Analysis (LTEA) Assay for solute carrier (SLC10A1) using HepaRG (AID 2283657)
MEASUREMENT_CONTEXT: mRNA level, 48 h; actives raise or lower the signal
Active and inactive are the calls of the source. How the source made its calls: active means hit-call score of the fitted dose curve at least 0.9, where 1 is the maximum; inactive means score below 0.9.
Select the matching outcome among t for active, f for inactive

stdin: Short answer needed: outcome of this test for CCCCN(CCCC)CCCC ?
stdout: f

stdin: Short answer needed: outcome of this test for Oc1ccc2ccccc2c1N=Nc1ccccc1 ?
stdout: t

stdin: Short answer needed: outcome of this test for CC(=O)OC/C=C(\C)CCC=C(C)C ?
stdout: f

stdin: Short answer needed: outcome of this test for Cc1ccc(C)c(C)c1 ?
stdout: f

Where do the numbers come from? From PubChem BioAssay (EPA / NIEHS).
